Listing: TGI of selected compounds
System: CCRF-CEM leukemia
Assay: NCI tumour cell line growth inhibition, 48 h
MEASUREMENT_NAME: TGI

{"STRUCTURE_SMILES_STRING": "COc1cc(C(=O)N2CCN(C(=O)c3cc(OC)c(OC)c(OC)c3)C2=S)cc(OC)c1OC", "EXPERIMENTAL_RESULT": "34.1 µM"}
{"STRUCTURE_SMILES_STRING": "COC(=O)/C(=C/c1ccc(OC)cc1)C(C(=O)O)=C1CCCC1", "EXPERIMENTAL_RESULT": "> 100 µM"}
{"STRUCTURE_SMILES_STRING": "C=C(C(=O)OCC)C(=O)OCC", "EXPERIMENTAL_RESULT": "> 100 µM"}
{"STRUCTURE_SMILES_STRING": "O=C1c2cc(-c3ccccc3)cnc2S(=O)(=O)N1c1ccc(Br)cc1", "EXPERIMENTAL_RESULT": "> 100 µM"}
{"STRUCTURE_SMILES_STRING": "C[n+]1c(/C=C/c2c(O)ccc3ccccc23)ccc2ccccc21", "EXPERIMENTAL_RESULT": "17.3 µM"}
{"STRUCTURE_SMILES_STRING": "O=C(Cc1ccc(F)c(Cl)c1)Nc1cc(C2(C(F)(F)F)CC2)nn1CC1CCCCC1", "EXPERIMENTAL_RESULT": "> 15 µM"}
{"STRUCTURE_SMILES_STRING": "CCOC(=O)Nc1cc2c(c(N)n1)N=C(c1ccccc1)CO2", "EXPERIMENTAL_RESULT": "4.42 µM"}
{"STRUCTURE_SMILES_STRING": "COc1cnc2c(c1)C(=O)c1c-2n(CCCN2CCOCC2)c(=O)c2cc(Cl)ccc12", "EXPERIMENTAL_RESULT": "> 100 µM"}
{"STRUCTURE_SMILES_STRING": "Cc1nc(C)c(N2CCN([N+](=O)[O-])CC2)c(=O)[nH]1", "EXPERIMENTAL_RESULT": "> 100 µM"}
{"STRUCTURE_SMILES_STRING": "Cc1cc(/N=C/c2ccc(N(C)C)cc2)n(-c2ccccc2)n1", "EXPERIMENTAL_RESULT": "> 100 µM"}
